// provenance: patent US20150291692A1

I'd be grateful if you could share measured Kd for these entries.
# Assay Target: T1, KIR3DL2 recombinant protein (R&D Systems) (human, UniProt P43630 28-340)
# T1 construct: Bought protein; also called rec KIR3DL2; recombinant KIR3DL2-Fc fusion protein; not shown: Fc part of the bought fusion protein; not described
# T1 sequence (P43630 28-340 A108T): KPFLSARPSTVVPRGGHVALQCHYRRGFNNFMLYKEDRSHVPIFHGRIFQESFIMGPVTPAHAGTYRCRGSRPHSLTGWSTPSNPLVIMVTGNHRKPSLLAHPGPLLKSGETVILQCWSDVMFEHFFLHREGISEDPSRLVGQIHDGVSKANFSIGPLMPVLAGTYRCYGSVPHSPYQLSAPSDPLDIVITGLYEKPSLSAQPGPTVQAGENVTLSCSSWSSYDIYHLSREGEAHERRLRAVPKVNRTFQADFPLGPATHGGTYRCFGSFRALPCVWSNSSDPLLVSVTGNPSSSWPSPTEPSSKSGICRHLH
# Assay: regular kinetic method
All answers are understood in nM, so give the number only.

IN: Consider the binder Hum23-K32-15C11 (antibody, V domains shown, also called H2/L3) VH: EVQLVESGGGLVQPGGSLRLSCAASGFTFSDAWMDWVRQAPGKGLEWVGEIRSKANNHATYYAASVKGRFTISRDDSKNSLYLQMNSLKTEDTAVYYCTGGYYPVYWGQGTLVTVSS VL: DIQMTQSPSSLSASVGDRVTITCKASQDINKNIAWYQHKPGKAPKLLIHYTSTLQPGVPSRFSGSGSGRDYTFTISSLQPEDIATYYCLQYDNLLTFGGGTKVEIK and give its measured Kd.
OUT: 1.24

IN: Please look up its Kd: Hum12-K32-15C11 (antibody, V domains shown, also called H1/L2; H1-L2) VH: EVQLVESGGGLVQPGGSLRLSCAASGFTFSDAWMDWVRQAPGKGLEWVGRIRSKANNHATAYAASVKGRFTISRDDSKNSLYLQMNSLKTEDTAVYYCTGGYYPVYWGQGTLVTVSS VL: DIQMTQSPSSLSASVGDRVTITCKASQDINKNIAWYQHKPGKAPKLLIHYTSTLQPGVPSRFSGSGSGTDFTFTISSLQPEDIATYYCLQYDNLLTFGGGTKVEIK
OUT: 5.61

IN: # Kd lookup, item Hum13-K32-15C11 (antibody, V domains shown, also called H1/L3) VH: EVQLVESGGGLVQPGGSLRLSCAASGFTFSDAWMDWVRQAPGKGLEWVGRIRSKANNHATAYAASVKGRFTISRDDSKNSLYLQMNSLKTEDTAVYYCTGGYYPVYWGQGTLVTVSS VL: DIQMTQSPSSLSASVGDRVTITCKASQDINKNIAWYQHKPGKAPKLLIHYTSTLQPGVPSRFSGSGSGRDYTFTISSLQPEDIATYYCLQYDNLLTFGGGTKVEIK
OUT: 4.59
